Recorded values, source patent US20210032299A1.

Target: T1, human glucose-dependent insulinotropic polypeptide (GIP) receptor (human, UniProt P48546 22-466)
T1 construct: whole, on cells; Assayed as crude membranes of stably transfected CHO cells; also called hGIPR; human GIP receptor
T1 sequence (looked up): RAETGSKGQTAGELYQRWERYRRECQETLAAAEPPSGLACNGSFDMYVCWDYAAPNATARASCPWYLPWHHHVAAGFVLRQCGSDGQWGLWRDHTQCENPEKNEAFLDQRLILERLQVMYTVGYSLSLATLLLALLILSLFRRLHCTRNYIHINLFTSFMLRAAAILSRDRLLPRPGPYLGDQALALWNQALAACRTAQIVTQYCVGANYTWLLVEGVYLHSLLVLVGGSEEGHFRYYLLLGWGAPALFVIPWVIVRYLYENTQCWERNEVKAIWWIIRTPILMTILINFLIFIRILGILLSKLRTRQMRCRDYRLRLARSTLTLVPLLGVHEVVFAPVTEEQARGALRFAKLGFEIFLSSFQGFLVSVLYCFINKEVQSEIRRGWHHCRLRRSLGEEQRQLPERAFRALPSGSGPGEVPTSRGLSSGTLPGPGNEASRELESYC
Test: SPA, displacement of [125I]-GIP from hGIPR membranes, 0.1% bacitracin
observable: Ki (nM)
Answers are plain numbers, in nM.

Please review the following examples before continuing.
| binder | Ki, nM |
| --- | --- |
| YXEGTFISDYSILLDKKAQXDFVNWLLAQGPSSGAPPPS (D-Ala2; K17((2-[2-(2-Amino-ethoxy)-ethoxy]-acetyl)2-(γ-Glu)-CO-(CH2)16-CO2H); Aib20; C-terminal amide) [Example 2] | 0.0373 |
| YXEGTXISDYSIXLDXKHQXDFVEXLLEGGPSSGAPPPS (Aib2; Iva6; αMeL13; Orn16; K17((2-[2-(2-Amino-ethoxy)-ethoxy]-acetyl)2-(γ-Glu)-CO-(CH2)18-CO2H); Aib20; 4-Pal25; C-terminal amide) [Example 76] | 0.0293 |
| YXEGTFISDYSILLDKKAQXDFVNWLLAGGPSSGAPPPS (D-Ala2; K17((2-[2-(2-Amino-ethoxy)-ethoxy]-acetyl)2-(γ-Glu)-CO-(CH2)16-CO2H); Aib20; C-terminal amide) [Example 19] | 0.0469 |

Please give Ki, item by item, for the list that follows.
1. YXEGTXISDYSIXLDKKHQXDFVEXLLETGPSSGAPPPS (Aib2; Iva6; αMeL13; K17((2-[2-(2-Amino-ethoxy)-ethoxy]-acetyl)2-(γ-Glu)-CO-(CH2)18-CO2H); Aib20; 4-Pal25; C-terminal amide) [Example 75]
2. YXEGTXISDYSIXLDKKHQXDFVEXLLEAGPSSGAPPPS (Aib2; Iva6; αMeL13; K17((2-[2-(2-Amino-ethoxy)-ethoxy]-acetyl)2-(γ-Glu)-CO-(CH2)18-CO2H); Aib20; 4-Pal25; C-terminal amide) [Example 88]

Solution:
0.0626
0.083
